- Tested on: MDA-MB-435
- Test Protocol: NCI tumour cell line growth inhibition, 48 h
Activity calls are given as the source filed them. No stated cut-off is given here; in the data, active = GI50 up to about 1.1 µM and inactive = higher.
// one of active, inactive, no free text

| Compound | System Under Test | Qualitative Label |
| --- | --- | --- |
| CCOC(=O)NN(C(=O)OCC)c1c(C)cc(C)cc1C | MDA-MB-435 | inactive |

Input line: Record request — test call for CC12CN(CC[N+](C)(C)C)CC1(C)C1CCC2O1 (stereo unspecified)
Output line: inactive

Input line: Please share the test call associated with `Cc1cn(CCCCC2=NCCCN2)c(=O)[nH]c1=O` .
Output line: inactive

Input line: Record lookup: outcome of this test for `CC1(C)OCC=CCO1` ?
Output line: inactive

Input line: I'd appreciate the recorded outcome for CC1=C(C)CC2C(=O)N(c3cc(C(C)(C)C)ccc3C(C)(C)C)C(=O)C2C1 (stereo unspecified) from this test.
Output line: inactive
